Reference source: paper PMC6736568

# Tested on: HCT-8 host cells (Hs18S)
# conditions: human, 41 h, 10 μM

compound: COc1ccc(-c2c(O)c3c(OC)c4c(cc3oc2=O)OC(C)(C)C=C4)cc1 [ROBUSTIC ACID]
Hs18S ΔCT: 0.28

compound: CC1(C)[C@@H](O)CC[C@]2(C)[C@H]3C(=O)C=C4[C@@H]5C[C@@](C)(C(=O)O)CC[C@]5(C)CC[C@@]4(C)[C@]3(C)CC[C@@H]12 [ENOXOLONE]
Hs18S ΔCT: -0.07

compound: COc1ccc(C(=O)CC(=O)O)c2c1C=CC(C)(C)O2 [URSINOIC ACID]
Hs18S ΔCT: -0.46

compound: O=c1c(O)c(-c2ccccc2)oc2ccccc12 [3-HYDROXYFLAVONE]
Hs18S ΔCT: -0.04

compound: C=C[C@](C)(O)CC[C@@H]1[C@@]2(C)CCCC(C)(C)[C@@H]2CC[C@@]1(C)O [SCLAREOL]
Hs18S ΔCT: -0.15

compound: C=CCSCC=C [DIALLYL SULFIDE]
Hs18S ΔCT: -0.01

compound: COc1c(C)c2c(c(O)c1C/C=C(\C)CCC(=O)O)C(=O)OC2 [MYCOPHENOLIC ACID]
Hs18S ΔCT: 1.03

compound: CO[C@@H]1[C@@H](OC(N)=O)[C@@H](O)[C@H](Oc2ccc3c(O)c(NC(=O)c4ccc(O)c(CC=C(C)C)c4)c(=O)oc3c2C)OC1(C)C [NOVOBIOCIN SODIUM]
Hs18S ΔCT: 0.10

compound: C[C@H]1[C@H]2CC[C@H]3[C@@H]4CC=C5C[C@@H](N(C)C)CC[C@]5(C)[C@H]4CC[C@]23CN1C [CONESSINE]
Hs18S ΔCT: -0.14

compound: O=C(CCc1ccc(O)cc1)c1c(O)cc(O)cc1O[C@@H]1O[C@H](CO)[C@@H](O)[C@H](O)[C@H]1O [PHLORIDZIN]
Hs18S ΔCT: -0.08

compound: COc1cc(O)c2c(=O)cc(C)oc2c1CC=C(C)C [HETEROPEUCENIN, METHYL ETHER]
Hs18S ΔCT: -0.10

compound: O=c1oc2c(O)c(O)cc3c(=O)oc4c(O)c(O)cc1c4c23 [ELLAGIC ACID]
Hs18S ΔCT: -0.05

compound: C=C(C)[C@@H]1CC=C(CO)CC1 [PERILLYL ALCOHOL]
Hs18S ΔCT: -0.35

compound: C=C1CC[C@@H]2[C@](C)(CO)[C@H](O)CC[C@@]2(C)[C@@H]1C/C=C1/C(=O)OC[C@H]1O [ANDROGRAPHOLIDE]
Hs18S ΔCT: 0.08

compound: C[C@@H]1CC[C@H]2C(C)(C)[C@H]3C[C@@]12CC[C@@]3(C)O [CEDROL]
Hs18S ΔCT: -0.11

compound: C[C@H](CCC(=O)O)[C@H]1CC[C@H]2[C@@H]3C(=O)C[C@@H]4CC(=O)CC[C@]4(C)[C@H]3CC(=O)[C@]12C [DEHYDROCHOLIC ACID]
Hs18S ΔCT: -0.06
